observable: melting point (°C)
Answer in °C, number only, no unit symbol.

[in] Which value of melting point has been reported for CN(CC=CC(=O)Nc1cc2c(Nc3ccc(F)c(Cl)c3)ncnc2cc1OC1CCCC1)C1CC1 [Example 8(9)] in the records?
[out] 140

[in] Which value of melting point has been reported for COc1cc2ncnc(Nc3cccc(Br)c3)c2cc1OCCN1CC(=O)O[C@@H](C)C1 [Example 7] in the records?
[out] 190

[in] Which value of melting point has been reported for CCN(CC)CC=CC(=O)Nc1cc2c(Nc3ccc(F)c(Cl)c3)ncnc2cc1OCC1CC1 [Example 3] in the records?
[out] 114

Would you kindly look at the next entry?
[in] Which value of melting point has been reported for CN(C)CC=CC(=O)Nc1cc2c(Nc3ccc(F)c(Cl)c3)ncnc2cc1OCC1CC1 [Example 3(2)] in the records?
[out] 137
